Origin of the recorded values: a melting point compilation (Tetko et al.; mined from patent text by program, amines drawn as free bases though some values may be those of a salt)

measurement_label: melting point

For orientation, consider the following solved cases.
CCCOc1ccc(S(=O)(=O)N2CCN(C(C)=O)CC2)cc1-c1nc2cc(N)c([N+](=O)[O-])cc2c(=O)[nH]1 : 249 to 251 °C
CC(=C1SC(=O)NC1=O)c1ccc(OCCOc2c(-c3ccc(F)c(F)c3)n(C)c3ccccc3c2=O)cc1 : 248 to 250 °C
CC(C(=O)O)C1CCCCC1 (stereo not given) : 63 to 64 °C
COc1cc2c(cc1OC)C(O)N(CCc1ccccc1)C2=O (stereo not given) : 130 °C

Moving on to another compound below.
Entry CN1CCCC(OC(=O)Nc2ccc(C(F)(F)F)cc2)C1 (stereo not given) ; melting point = 119 to 120 °C
